Target: UniProtKB P21917
Sequence (P21917 whole entry): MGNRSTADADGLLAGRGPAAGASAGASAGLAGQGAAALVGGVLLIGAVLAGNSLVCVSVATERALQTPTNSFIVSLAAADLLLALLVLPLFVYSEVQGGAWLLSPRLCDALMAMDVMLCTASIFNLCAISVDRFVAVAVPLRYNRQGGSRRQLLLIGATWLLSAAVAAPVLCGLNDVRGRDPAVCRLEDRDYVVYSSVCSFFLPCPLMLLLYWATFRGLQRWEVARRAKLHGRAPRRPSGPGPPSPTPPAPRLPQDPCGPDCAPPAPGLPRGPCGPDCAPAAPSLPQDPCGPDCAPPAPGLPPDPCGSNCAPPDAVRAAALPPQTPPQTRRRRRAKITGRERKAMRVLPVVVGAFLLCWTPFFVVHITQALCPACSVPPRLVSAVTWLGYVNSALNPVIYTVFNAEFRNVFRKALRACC
Test: Binding affinity towards human D4.4 receptor
pKi: −log10 of the molar value.
endpoint_label: pKi

[[record]]
test_smiles = "Fc1ccc2[nH]c(CN3CCN(c4ccccn4)CC3)cc2c1"
target_entity = "UniProtKB P21917"
reported = 8.44


* * *

assay: Binding affinity tested against D4.2 receptor in Chinese hamster ovary cell line (CHO cells) using [3H]spiperone as a radioligand; assay type: cell-based, Cricetulus griseus
endpoint_label: Ki (nM)

[[record]]
test_smiles = "c1ccc(N2CCN(Cc3nc4ccccc4[nH]3)CC2)cc1"
result_unit = "nM"
reported = 33


* * *

Below, each entry is listed alongside its reported pEC50.
target: D(4) dopamine receptor (Rattus norvegicus, UniProt P30729); assay: In vitro effective concentration tested on HEK293 cells co-transfected with rat Dopamine receptor D4 using FLIPR assay; format: cell-based
Sequence (P30729 whole entry): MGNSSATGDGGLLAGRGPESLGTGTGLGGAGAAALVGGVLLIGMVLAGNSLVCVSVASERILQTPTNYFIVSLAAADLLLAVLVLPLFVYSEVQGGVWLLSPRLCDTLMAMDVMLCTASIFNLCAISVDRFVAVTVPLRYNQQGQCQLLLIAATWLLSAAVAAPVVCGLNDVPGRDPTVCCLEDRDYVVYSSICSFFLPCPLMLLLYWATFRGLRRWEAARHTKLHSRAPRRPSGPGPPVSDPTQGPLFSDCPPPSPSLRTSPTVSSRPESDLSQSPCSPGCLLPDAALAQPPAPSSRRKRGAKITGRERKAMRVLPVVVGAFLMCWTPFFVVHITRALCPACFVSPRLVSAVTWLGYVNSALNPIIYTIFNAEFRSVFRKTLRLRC
pEC50: −log10 of the molar value.
endpoint_label: pEC50

[[record]]
molecule = "NCCc1ccc(O)c(O)c1 [DOPAMINE]"
endpoint_label = "pEC50"
reported = 8.62

[[record]]
molecule = "c1ccc(N2CCN(Cc3nc4ccccc4[nH]3)CC2)nc1 [ABT-724]"
endpoint_label = "pEC50"
reported = 7.84

[[record]]
molecule = "Fc1ccc2[nH]c(CN3CCN(c4ccccn4)CC3)cc2c1"
endpoint_label = "pEC50"
reported = 7.44

[[record]]
molecule = "CN1CCc2cccc3c2[C@H]1Cc1ccc(O)c(O)c1-3 [APOMORPHINE]"
endpoint_label = "pEC50"
reported = 8.26


* * *

Below, each entry is listed alongside its reported pKi.
biological target: D(4) dopamine receptor (Homo sapiens, UniProt P21917); assay: In vitro binding affinity tested on HEK293 cells co-transfected with human D4.4 receptor using [3H]spiperone as a radioligand […]; format: cell-based
pKi: −log10 of the molar value.
endpoint_label: pKi

[[record]]
test_smiles = "Cc1ccc(C)c(N2CCN(Cc3nc4ccccc4[nH]3)CC2)c1"
reported = 8.42

[[record]]
test_smiles = "Cc1ccc(N2CCN(Cc3nc4ccccc4[nH]3)CC2)cc1C"
reported = 8.82


* * *

Below, each entry is listed alongside its reported pEC50.
Molecular target: UniProt P21917
Sequence (P21917 whole entry): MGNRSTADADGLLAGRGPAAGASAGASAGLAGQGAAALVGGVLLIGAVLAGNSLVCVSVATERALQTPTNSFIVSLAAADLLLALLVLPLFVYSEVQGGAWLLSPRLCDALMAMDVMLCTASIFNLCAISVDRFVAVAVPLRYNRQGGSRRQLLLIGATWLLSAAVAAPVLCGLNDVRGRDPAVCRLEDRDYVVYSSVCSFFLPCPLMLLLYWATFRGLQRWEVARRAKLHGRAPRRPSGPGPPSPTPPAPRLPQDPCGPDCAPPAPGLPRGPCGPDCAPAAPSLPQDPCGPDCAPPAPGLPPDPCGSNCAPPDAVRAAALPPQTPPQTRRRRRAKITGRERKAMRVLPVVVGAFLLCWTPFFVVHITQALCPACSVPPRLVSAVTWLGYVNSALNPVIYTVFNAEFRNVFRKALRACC
Assay: In vitro EC50 tested on HEK293 cells co-transfected with human Dopamine receptor D4.4 using FLIPR assay
Format: cell-based
pEC50: −log10 of the molar value.
endpoint_label: pEC50

[[record]]
test_smiles = "c1cnc(N2CCN(Cc3nc4ccccc4[nH]3)CC2)nc1"
reported = 7.35

[[record]]
test_smiles = "C[C@H]1CN(c2ccccn2)CCN1Cc1nc2ccccc2[nH]1"
reported = 7.28

[[record]]
test_smiles = "Fc1ccc2[nH]c(CN3CCN(c4ccccn4)CC3)nc2c1"
reported = 8.10

[[record]]
test_smiles = "c1ccc(N2CCN(CCc3nc4ccccc4[nH]3)CC2)nc1"
reported = 7.64

[[record]]
test_smiles = "COc1ccccc1C1CCN(Cc2nc3ccccc3[nH]2)CC1"
reported = 7.00

[[record]]
test_smiles = "Fc1cccnc1N1CCN(Cc2nc3ccccc3[nH]2)CC1"
reported = 7.62

[[record]]
test_smiles = "COc1ccccc1N1CCN(Cc2nc3ccccc3[nH]2)CC1"
reported = 7.91

[[record]]
test_smiles = "Cc1cccc(N2CCN(Cc3nc4ccccc4[nH]3)CC2)n1"
reported = 7.44

[[record]]
test_smiles = "CCOc1ccccc1N1CCN(Cc2nc3ccccc3[nH]2)CC1"
reported = 7.60

[[record]]
test_smiles = "C[C@@H]1CN(c2ccccn2)CCN1Cc1nc2ccccc2[nH]1"
reported = 7.19

[[record]]
test_smiles = "CS(=O)(=O)c1cccnc1N1CCN(Cc2nc3ccccc3[nH]2)CC1"
reported = 6.87


Data origin: ChEMBL document CHEMBL1148372
